Test system: slow reacting substance of anaphylaxis (SRS-A)
Experiment: SRS-A antagonism on isolated guinea pig ileum
Set-up: species or system guinea pig ileum (SRS-A from rat)
Settings: isolated guinea pig ileum strips, rat SRS-A, tyrode with atropine and mepyramine; 50% inhibition per method; read-out: SRS-A antagonism on Guinea Pig Ileum: Approximate concentration to give inhibition of a than maximal response to SRS-A
pIC50: −log10 of the molar value.
Measurement Name: pIC50

Worked set:
[[record]]
molecule = "Cc1ccc(OCCCOc2ccc3c(O)c([N+](=O)[O-])c(=O)oc3c2)c([N+](=O)[O-])c1 [Example 137]"
tgt = "slow reacting substance of anaphylaxis (SRS-A)"
experimental_value = 5.00

[[record]]
molecule = "O=c1oc2ccc(OCCCOc3ccccc3)cc2c(O)c1[N+](=O)[O-] [Example 128]"
tgt = "slow reacting substance of anaphylaxis (SRS-A)"
experimental_value = 6.00

[[record]]
molecule = "O=c1oc2cc(OCCCOc3ccc(Cl)cc3)ccc2c(O)c1[N+](=O)[O-] [Example 133]"
tgt = "slow reacting substance of anaphylaxis (SRS-A)"
experimental_value = 6.00


1: Cc1ccccc1OCCCOc1ccc2c(O)c([N+](=O)[O-])c(=O)oc2c1 [Example 155]
2: O=c1oc2ccc(OCCCCCOc3ccccc3)cc2c(O)c1[N+](=O)[O-] [Example 151]
Look at 1 and 2 . Which one has the lower recorded pIC50 number? Please indicate the selected item by its label.
2
(2: 6.00, 1: 7.00)
